Some compounds, each annotated with its measured TGI.
Test system: NCI-H522 lung
assayDetails: NCI tumour cell line growth inhibition, 48 h
Expressed in µM, but write only the number.

Example entries and their recorded answers appear below.
NCI-H522 lung assay, compound `COc1cc(C(=O)N2CCN(C=O)C2=S)cc(OC)c1OC` , recorded TGI = 20.8

NCI-H522 lung assay, compound `CCN(CC)Cc1ccc(C(=S)Nc2ccc(Cl)cc2)s1` , recorded TGI = 25

NCI-H522 lung assay, compound `C=CCc1cccc2cc(C(=O)NCc3ccccc3)c(=N)oc12` , recorded TGI = 44.2

Please find the next compound below.
NCI-H522 lung assay, compound CCOC(=O)C(C#N)C1=CC(=O)C(=O)c2ccc(OC)cc21 (configuration not stated) , recorded TGI = 18.7
